Test: chemical genetic growth profiling, strain panel (AID 1159580);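 further: tested at 20 µM; growth read once vehicle control cultures reached saturation at 30 °C; lower values mean less growth of the strain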
Reported conditions: S. cerevisiae deletion strains, growth OD, locus YNL197C, strain WHI3
The campaign covered roughly 5,500 compounds. About 2,000 (36%) were called active. Not shown: some 18% with an inconclusive outcome. No stated cut-off is given here; in the data, active means normalized growth mostly below about 0.91 (no sharp cut-off); inconclusive means no clear call, values can overlap the other calls; inactive means mostly above about 0.92. The list shows a part of the results.
Outcomes: active, inactive

Compound	Classification
Clc1cc(I)cc(Cl)c1NC1=NCCN1	inactive
O=c1c2ccccc2nc2n1CCc1c-2[nH]c2ccccc12	inactive
C[C@@H]1O[C@H](C[N+](C)(C)C)C[C@H]1O	inactive
CN1C2CCC1CC(NC(=O)c1nn(C)c3ccccc13)C2 (stereo unspecified)	inactive
NCC1OC(O[C@@H]2[C@H](O)C(OC3C(O)C(N)CC(N)C3OC3OC(CO)C(O)C(O)C3N)O[C@@H]2CO)C(N)C(O)C1O (stereo partly specified)	inactive
Oc1ccc2c3c1O[C@H]1[C@@H](O)CC[C@@]4(O)C(C2)N(CC2CCC2)CCC314 (stereo partly specified)	inactive
NC(N)=[N+]1CCc2ccccc2C1	inactive
N[C@H](C(=O)O)[C@H]1C[C@@H]1C(=O)O	inactive
COc1cc(-c2ccc(=O)[nH]n2)ccc1OC(F)F	inactive
Nc1c2c(nc3ccccc13)CCCC2	inactive
CC(=O)[C@]1(O)Cc2c(O)c3c(c(O)c2[C@@H](O[C@H]2C[C@H](N)[C@H](O)[C@H](C)O2)C1)C(=O)c1ccccc1C3=O	active
CCN(CC)c1ncnc2c1ncn2[C@@H]1O[C@H](COP(=O)(O)OP(=O)(O)C(Br)(Br)P(=O)(O)O)[C@@H](O)[C@H]1O	inactive
Nc1ccc(S(=O)(=O)Nc2ccnn2-c2ccccc2)cc1	inactive
CC(C)C(=O)c1c(C(C)C)nn2ccccc12	inactive
NC12CC3CC(CC(C3)C1)C2	inactive
Nc1ncnc2c1c(-c1ccc(Oc3ccccc3)cc1)cn2C1CCCC1	inactive
N=S(=O)(O)Cc1noc2ccccc12	inactive
N=C(N)c1ccc(OCCCCCOc2ccc(C(=N)N)cc2)cc1 (tested in a mixture with another compound)	inactive
NC(N)=NN=Cc1c(Cl)cccc1Cl	inactive
C[N+](C)(C)CCO	inactive
CCN1CCC[C@H]1CNC(=O)c1cc(S(N)(=O)=O)ccc1OC	inactive
COc1ccc2c(c1)c(CC(=O)O)c(C)n2C(=O)c1ccccc1	inactive
NO	inactive
CC(C)(C=O)Cc1cc(C(C)(C)C)c(O)c(C(C)(C)C)c1	inactive
Cc1cc(C)c(NC(=O)C[C@H](CC(=O)O)c2cccc3ccccc23)c(C(=O)N2CCC3(CCCC3)CC2)c1	inactive
c1cnc(N2CCN(Cc3ccc4c(c3)OCO4)CC2)nc1	inactive
Nc1c2c(nc3ccccc13)CCCC2O (stereo unspecified)	inactive
CNC(=O)Oc1ccc2c(c1)C1(C)CCN(C)C1N2C (stereo unspecified)	inactive
Oc1ccc2c3c1O[C@H]1c4[nH]c5ccccc5c4C[C@@]4(O)C(C2)N(CC2CC2)CCC314 (stereo partly specified)	inactive
FC(F)(F)c1ccccc1-n1ccnc1	inactive
CC(=O)OCC(=O)[C@@]1(O)CC[C@H]2[C@@H]3CCC4=CC(=O)CC[C@]4(C)[C@H]3C(=O)C[C@@]21C	inactive
Nc1ncnc2c1ncn2C1CCCC1	inactive
O=C(Nc1cc(C(=O)Nc2ccc(S(=O)(=O)O)cc2S(=O)(=O)O)cc(C(=O)Nc2ccc(S(=O)(=O)O)cc2S(=O)(=O)O)c1)Nc1cc(C(=O)Nc2ccc(S(=O)(=O)O)cc2S(=O)(=O)O)cc(C(=O)Nc2ccc(S(=O)(=O)O)cc2S(=O)(=O)O)c1	inactive
O=C(O)CCCCCC[C@H]1C(=O)NC(=O)N1CC[C@@H](O)C1CCCCC1	inactive
CC(C)(CO)Cc1cc(C(C)(C)C)c(O)c(C(C)(C)C)c1	inactive
CC1=C[C@@H]2c3cccc4[nH]cc(c34)C[C@H]2N(C)C1	inactive
CCCOc1ccccc1-c1nc2n[nH]nc2c(=O)[nH]1	inactive
N=C(N)c1ccc(N)cc1	inactive
CN=c1nc(-c2ccccc2)n(-c2ccccc2)s1	inactive
NCC#Cc1ccccc1	inactive
NNc1nncc2ccccc12	inactive
N[C@@H](Cc1c[nH]c2ccccc12)C(=O)O	inactive
NCCc1ccc(S(=O)(=O)F)cc1	inactive
CC1=NS(=O)(=O)c2cc(Cl)ccc2N1	inactive
C[C@]12CCC(=O)C=C1CC[C@@H]1[C@@H]2C(=O)C[C@@]2(C)[C@H]1CC[C@]2(O)C(=O)CO	inactive
CC(C)(C)c1o[nH]c(=O)c1CC(N)C(=O)O (stereo unspecified)	inactive

====

Test: chemical genetic growth profiling, strain panel (AID 1159580);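 further: tested at 20 µM; growth read once vehicle control cultures reached saturation at 30 °C; lower values mean less growth of the strain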
Reported conditions: S. cerevisiae deletion strains, growth OD, locus YLR384C, strain iki3
Screen size: about 5,500 compounds; about 2,000 (36%) were called active. Another 18% or so got no clear call; they are omitted. Rule as the data show it: active = normalized growth mostly below about 0.91 (no sharp cut-off); inconclusive = no clear call, values can overlap the other calls; inactive = mostly above about 0.92. This is one part of the list. Where a SMILES comes first, the peptide text is derived from it. Bridges are numbered along the chain shown (N, C = ends). [ ]: non-standard residue; d: D form. The star is where a group is joined. ξ: configuration not given here. ξDab(CH2SO3H) = NC(CCNCS(=O)(=O)O)C(=O)O; Heptanoyl(6-Me) = CC(C)CCCCC(=O)*; Dab = NCC[CH](N)C(=O)O
Labels: active, inactive

Molecule	Classification
N=C(N)SCCN	inactive
Nc1c2ccccc2nc2ccccc12	active
CCCCCCCCCCCCCCC(C(=O)O)C(O)(CC(=O)OC)C(=O)O (stereo not drawn)	inactive
COc1ccc2[nH]cc(CCN)c2c1	inactive
CCOc1ccc2nc3cc(N)ccc3c(N)c2c1	active
CCC(C)C1NC(=O)C(CCNCS(=O)(=O)O)NC(=O)C(NC(=O)C(CCNCS(=O)(=O)O)NC(=O)C(NC(=O)C(CCNCS(=O)(=O)O)NC(=O)CCCCC(C)C)C(C)O)CCNC(=O)C(C(C)O)NC(=O)C(CCNCS(=O)(=O)O)NC(=O)C(CCNCS(=O)(=O)O)NC(=O)C(C(C)CC)NC1=O (stereo not drawn) ({Heptanoyl(6-Me)}-[ξDab(CH2SO3H)]T[ξDab(CH2SO3H)][Dab][ξDab(CH2SO3H)]II[ξDab(CH2SO3H)][ξDab(CH2SO3H)]T; lactam 4-C; configuration not given here)	inactive
CC1(C)CC[C@]2(C)CC[C@]3(C)C(=CCC4[C@@]5(C)CC[C@H](O)C(C)(C)C5CC[C@]43C)C2C1 (stereo partly drawn)	inactive
NNc1nncc2ccccc12	inactive
CCOC(=O)OC(C)OC(=O)C1N2C(=O)C(NC(=O)[C@H](N)c3ccccc3)C2SC1(C)C (stereo partly drawn)	inactive
Clc1ccccc1C(c1ccccc1)(c1ccccc1)n1ccnc1	active
NC(N)=N/N=C/c1c(Cl)cccc1Cl	inactive
CC(C)(Sc1cc(C(C)(C)C)c(O)c(C(C)(C)C)c1)Sc1cc(C(C)(C)C)c(O)c(C(C)(C)C)c1	inactive
CNCc1ccccc1	inactive
COC(=O)C[C@H]1C(C)(C)C2(O)OC34CC2C(=O)[C@]1(C)C3CC[C@]1(C)C4=CC(=O)O[C@H]1c1ccoc1 (stereo partly drawn)	inactive
Nc1c2c(nc3ccccc13)CCCC2O (stereo not drawn)	inactive
CCCCCCCCCCCC[C@H](C(=O)O)[C@@H](C)C(=O)O	inactive
CC(C)CCCC1(C)C=Cc2c(O)c3c(c(CCC(C)C)c2O1)OC12C(CC4CC1C(C)(C)OC2(CCC(C)C(=O)O)C4O)C3=O (stereo not drawn)	inactive
Nc1c2c(nc3ccccc13)CCCC2	inactive
Cc1ccc(-c2cc(C(F)(F)F)nn2-c2ccc(S(N)(=O)=O)cc2)cc1	inactive
Cc1cc(-n2c(=O)[nH]c(=O)n(C)c2=O)ccc1Oc1ccc(SC(F)(F)F)cc1	inactive
Cc1ccc(N=CN(C)C=Nc2ccc(C)cc2C)c(C)c1	inactive
COc1ccc2c3c([nH]c2c1)C(C)=NCC3	inactive
CC(C)(Oc1ccc(CCNC(=O)c2ccc(Cl)cc2)cc1)C(=O)O	inactive
COc1cc(N)c(Cl)cc1C(=O)NC1CCN(Cc2ccccc2)CC1	inactive
O=C(Nc1ccc(C(=O)O)c(O)c1)c1ccccc1	inactive
COc1cccc2c1C(=O)c1c(O)c3c(c(O)c1C2=O)C[C@@](O)(C(C)=O)C[C@@H]3O[C@H]1C[C@H](N)[C@H](O)[C@H](C)O1	inactive
CC1(C)CC[C@]2(C(=O)O)CC[C@]3(C)C(=CCC4[C@@]5(C)CC[C@@H](O)C(C)(C)C5CC[C@]43C)C2C1 (stereo partly drawn)	inactive
O=c1[nH]cc(F)c(=O)[nH]1	active
COc1ccc2c(c1)c(CC(=O)O)c(C)n2C(=O)c1ccc(Cl)cc1	inactive
CCN1C[C@]2(OC(=O)c3ccccc3NC(C)=O)CCC(OC)[C@]34C1[C@H](CC23)[C@@]1(O)CC(OC)[C@H]2CC4C1(O)[C@H]2OC (stereo partly drawn)	inactive
COc1c(-c2coc3cc4c(cc3c2=O)CC(OC(C)=O)C(C)(C)O4)ccc2c1C=CC(C)(C)O2 (stereo not drawn)	inactive
NC(Cc1c[nH]c2ccccc12)C(=O)O (stereo not drawn)	inactive
CC(=O)NC(C(=O)O)C(C)(C)SN=O (stereo not drawn)	inactive
CCC(C)C(NC)C(=O)O (stereo not drawn)	inactive
C/C=C(/C)C(=O)OC1CCC2(C)C3CCC4C5(O)CC(O)C6(O)C(CN7CC(C)CCC7C6(C)O)C5(O)CC42OC13O (stereo not drawn)	inactive
CC(C)CC(N(C)C)C1(c2ccc(Cl)cc2)CCC1 (stereo not drawn)	inactive
COc1ccc2c(c1)c(CC(=O)OCC(=O)O)c(C)n2C(=O)c1ccc(Cl)cc1	inactive
COc1cc(C(=O)O[C@H]2CC[C@@]3(C)[C@@H]4CC[C@H]5[C@]6(O)C[C@H](O)[C@@]7(O)[C@@H](CN8C[C@@H](C)CC[C@H]8[C@@]7(C)O)[C@]6(O)C[C@@]53O[C@]24O)cc(OC)c1OC	inactive
